ASSAY_METHOD_TEXT: Example 2 (NB-236): steady-state food-effect extension study of NB 8/90 tablets, plasma pharmacokinetics
CONDITIONS: both, human, plasma, po, Cmax, steady state, morning dose two NB 8/90 tablets fed high-fat meal, Day 33 or 34; mean ± SD
TEST_READOUT: Cmax (ng/mL)
Give just the number in ng/mL; leave the unit off.

Incoming: Which value of Cmax has been reported for O=C1CC[C@@]2(O)[C@H]3Cc4ccc(O)c5c4[C@@]2(CCN3CC2CC2)[C@H]1O5 [Naltrexone, naltrexone] in the records?
Outgoing: 2.84

* * *

ASSAY_METHOD_TEXT: clinical
CONDITIONS: both, human, in vivo
TEST_READOUT: Cmax (ng/mL)
Give just the number in ng/mL; leave the unit off.

Incoming: Which value of Cmax has been reported for CC(NC(C)(C)C)C(=O)c1cccc(Cl)c1 (stereo not shown) in the records?
Outgoing: 161

* * *

ASSAY_METHOD_TEXT: clinical
CONDITIONS: human, in vivo
TEST_READOUT: Tmax (h)
Give just the number in h; leave the unit off.

Incoming: Which value of Tmax has been reported for CC(NC(C)(C)C)C(=O)c1cccc(Cl)c1 (stereo not shown) in the records?
Outgoing: 2.07
